Source of measurements: paper PMC10458253

Test system: differentiated SH-SY5Y cells
assay.summary: Resazurin reduction cytotoxicity assay, differentiated SH-SY5Y
Format: cell-based
stated.conditions: 24 h
value.kind: Hill Slope
Write the value as a bare number.

INSERT INTO results (compound, value_kind, measurement) VALUES
  ('COc1cc([N+](=O)[O-])c(OC)cc1CCN', 'Hill Slope', 1.627),
  ('COc1ccccc1CNCCc1cc(OC)c(OC)c(OC)c1', 'Hill Slope', 2.524),
  ('COc1cc(CCNCc2ccccc2OC)c(OC)cc1Br [25B-NBOMe]', 'Hill Slope', 4.464);

### Prompt Specify measured Hill Slope for `COc1cc(CCN)c(OC)cc1Br` .
### Response 1.670

### Prompt Give a short answer stating reported Hill Slope for COc1cc([N+](=O)[O-])c(OC)cc1CCNCc1ccccc1OC [25N-NBOMe] .
### Response 4.692
